Numbers sourced from ChEMBL document CHEMBL1201862.

- assayTarget: Tyrosine-protein phosphatase non-receptor type 11 (Homo sapiens)
- Sequence (Q06124 whole entry): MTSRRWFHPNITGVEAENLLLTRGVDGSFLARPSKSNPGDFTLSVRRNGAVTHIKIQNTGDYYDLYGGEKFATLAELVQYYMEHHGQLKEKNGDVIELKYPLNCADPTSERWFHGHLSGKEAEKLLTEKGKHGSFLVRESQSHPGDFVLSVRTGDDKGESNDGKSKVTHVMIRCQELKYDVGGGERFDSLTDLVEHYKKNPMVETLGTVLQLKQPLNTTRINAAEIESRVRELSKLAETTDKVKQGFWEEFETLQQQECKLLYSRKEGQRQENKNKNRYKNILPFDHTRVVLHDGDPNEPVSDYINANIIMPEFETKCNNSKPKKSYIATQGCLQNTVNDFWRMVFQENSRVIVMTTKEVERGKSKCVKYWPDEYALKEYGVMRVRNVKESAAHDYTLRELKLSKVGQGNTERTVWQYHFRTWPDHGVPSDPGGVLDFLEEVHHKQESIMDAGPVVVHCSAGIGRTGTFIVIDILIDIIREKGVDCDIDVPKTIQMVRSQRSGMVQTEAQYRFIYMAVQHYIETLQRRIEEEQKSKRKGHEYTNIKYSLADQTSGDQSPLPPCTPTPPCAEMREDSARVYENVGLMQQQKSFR
- protocolText: SHP2 phosphatase inhibition, dose response, selectivity assay for STEP inhibitor project, biochemical (AID 602367)
- Format: functional
- conditionSummary: read-out: IC50_Mean
The source made the active and inactive calls.
Each item that follows carries a reported IC50.
measuredQuantity: IC50

INSERT INTO measurements (compound, testresult) VALUES
  ('Cc1sc2nc(CSC(C)C(=O)Nc3ccc(Cl)cn3)nc(O)c2c1C (centres undefined)', '5.47 µM (active)'),
  ('COc1cccc(Nc2nn3c(=O)c4ccccc4nc3s2)c1', '9.22 µM (active)'),
  ('COc1ccc(OC)c(N2C(=O)[C@@H]3C(c4ccccc4Cl)=NO[C@@H]3C2=O)c1', '0.469 µM (active)'),
  ('O=Cc1cn(-c2ccccc2)nc1-c1cc2cc(O)ccc2oc1=O', '1.96 µM (active)');

---

- assayTarget: DNA repair protein RAD52 homolog (Homo sapiens)
- Sequence (P43351 whole entry): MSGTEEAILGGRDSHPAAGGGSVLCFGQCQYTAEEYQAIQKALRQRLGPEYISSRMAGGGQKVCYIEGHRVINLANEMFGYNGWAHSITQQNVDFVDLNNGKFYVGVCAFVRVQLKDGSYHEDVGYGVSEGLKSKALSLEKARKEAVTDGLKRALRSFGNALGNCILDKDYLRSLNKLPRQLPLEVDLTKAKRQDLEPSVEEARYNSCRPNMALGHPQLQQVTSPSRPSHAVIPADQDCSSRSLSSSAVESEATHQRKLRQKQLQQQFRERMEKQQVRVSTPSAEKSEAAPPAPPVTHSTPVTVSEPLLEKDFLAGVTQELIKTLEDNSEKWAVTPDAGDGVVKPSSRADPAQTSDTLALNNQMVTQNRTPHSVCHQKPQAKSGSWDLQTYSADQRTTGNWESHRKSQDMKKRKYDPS
- Assay type: functional, biochemical
Active and inactive are the calls of the source.
Each item that follows carries a reported AC50.
measuredQuantity: AC50

INSERT INTO results (compound, testresult) VALUES
  ('CN(C)CCCNC(=O)C[C@H]1C[C@H](C(=O)N2CCOCC2)[C@@]2(CCC3CCCC3)c3[nH]c4cc(-c5ccco5)ccc4c3CCN2C1=O', '11.2 µM (active)'),
  ('Cc1cc2oc3ccc(NCCC4CCCN4C)cc3c(=O)c2cc1C (stereo unspecified)', '8.31 µM (active)'),
  ('CCN1CCN(Cc2ccc(NC(=O)c3ccc(C)c(NC(=O)c4csc(-c5ccncc5)n4)c3)cc2C(F)(F)F)CC1', '33.6 µM (active)'),
  ('COc1cc(/C=C/c2cc[n+](C)cc2)ccc1OCC(=O)Nc1ccc(Cl)c(Cl)c1', '8.27 µM (active)'),
  ('Cc1[nH]c2ccccc2c1C1=CCNCC1', '4.56 µM (active)'),
  ('CCN(Cc1ccccc1)c1ccc(/C=N/N=C(N)N)cc1', '6.26 µM (active)');

---

- assayTarget: Genome polyprotein (dengue virus type 2, UniProt P29990)
- Sequence (P29990 2492-3391 limits assumed): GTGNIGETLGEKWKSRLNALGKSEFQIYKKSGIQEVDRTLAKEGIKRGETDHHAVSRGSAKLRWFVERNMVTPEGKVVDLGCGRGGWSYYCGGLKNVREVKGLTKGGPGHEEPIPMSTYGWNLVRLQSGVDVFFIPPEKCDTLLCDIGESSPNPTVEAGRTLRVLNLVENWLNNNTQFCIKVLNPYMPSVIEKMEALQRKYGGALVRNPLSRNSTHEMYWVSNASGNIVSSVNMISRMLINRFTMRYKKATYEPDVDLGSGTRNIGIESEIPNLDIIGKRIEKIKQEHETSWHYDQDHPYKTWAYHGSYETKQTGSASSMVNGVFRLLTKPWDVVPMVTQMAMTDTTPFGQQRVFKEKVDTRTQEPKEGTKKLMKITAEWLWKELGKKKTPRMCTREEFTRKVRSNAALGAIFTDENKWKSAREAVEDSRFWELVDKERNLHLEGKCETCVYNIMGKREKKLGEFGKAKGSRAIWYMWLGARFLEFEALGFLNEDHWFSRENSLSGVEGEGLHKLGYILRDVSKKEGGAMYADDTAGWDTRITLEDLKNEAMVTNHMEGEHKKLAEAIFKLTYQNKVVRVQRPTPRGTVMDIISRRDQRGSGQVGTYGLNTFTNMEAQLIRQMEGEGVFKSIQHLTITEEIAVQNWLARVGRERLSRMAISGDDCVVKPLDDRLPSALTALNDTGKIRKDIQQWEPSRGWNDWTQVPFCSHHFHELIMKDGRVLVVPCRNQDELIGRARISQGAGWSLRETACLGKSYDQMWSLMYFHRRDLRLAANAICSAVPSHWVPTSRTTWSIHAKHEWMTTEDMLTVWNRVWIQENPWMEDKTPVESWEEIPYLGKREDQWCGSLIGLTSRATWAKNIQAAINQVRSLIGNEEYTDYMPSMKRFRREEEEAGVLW
- protocolText: Dengue-2 NS5 methyltransferase inhibitors, primary screen, biochemical, confirmation dose response (AID 588689)
- Format: functional
Calls of active or inactive are those of the source.
measuredQuantity: IC50

INSERT INTO assay_data (cpdsmiles, assaytarget, testresult) VALUES
  ('Cc1cc(S(=O)(=O)ON2C(=O)c3ccccc3C2=O)ccc1F', 'Genome polyprotein (dengue virus type 2, UniProt P29990)', '> 100 µM (active)'),
  ('O=C(c1ccc(NC(=O)C(c2ccccc2)c2ccccc2)cc1)c1ccc(C(=O)O)c(C(=O)O)c1', 'Genome polyprotein (dengue virus type 2, UniProt P29990)', '57.6 µM (active)'),
  ('CCN(CC)Cc1cc(O)c(CN(CC)CC)cc1O', 'Genome polyprotein (dengue virus type 2, UniProt P29990)', '28.1 µM (active)'),
  ('Cc1c(Nc2cc(Cl)c3nonc3c2[N+](=O)[O-])c(=O)n(-c2ccccc2)n1C', 'Genome polyprotein (dengue virus type 2, UniProt P29990)', '21.4 µM (active)'),
  ('COc1ccc(N2C(=O)/C(=C/c3ccco3)C(=O)NC2=S)cc1', 'Genome polyprotein (dengue virus type 2, UniProt P29990)', '> 100 µM (active)');

---

- assayTarget: Nonstructural protein 1 (Influenza A virus)
- Sequence (Q194T2 whole entry): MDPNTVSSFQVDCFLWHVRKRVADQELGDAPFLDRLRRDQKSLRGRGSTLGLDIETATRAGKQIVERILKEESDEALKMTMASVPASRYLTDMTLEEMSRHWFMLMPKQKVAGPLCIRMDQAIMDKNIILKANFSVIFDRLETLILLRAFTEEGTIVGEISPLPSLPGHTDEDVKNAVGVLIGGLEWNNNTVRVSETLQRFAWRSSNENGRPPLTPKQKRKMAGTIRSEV
- Assay type: functional, Influenza A virus (A/California/07/2009(H1N1))
Calls of active or inactive are those of the source.
measuredQuantity: IC50

INSERT INTO measurements (compound, testresult) VALUES
  ('CCN(Cc1ccccc1)c1ccc(/C=N/N=C(N)N)cc1', '39.3 µM (active)'),
  ('CC(C)Oc1ccccc1/C=N/Nc1ccccc1[N+](=O)[O-]', '31.2 µM (active)'),
  ('Cc1ccc(N=Nc2ccc3ccccc3c2O)cc1', '5.83 µM (active)'),
  ('CCN1/C(=C/C(C)=C/c2sc3ccccc3[n+]2CC)Sc2ccccc21', '5.7 µM (active)'),
  ('CCN(CC)C(=O)c1ccc2c(c1)C1C(Cl)C(Sc3ccccc3[N+](=O)[O-])CC1C(C(=O)O)N2 (stereo unspecified)', '17.7 µM (active)'),
  ('COc1cccc2c1C(=O)c1c(O)c3c(c(O)c1C2=O)CC(O)(C(C)=NO)CC3OC1CC(N)C(O)C(C)O1 (stereo unspecified)', '32 µM (active)');

---

Each item that follows carries a reported IC50.
- assayTarget: Fatty acid synthase (Homo sapiens, UniProt P49327)
- Sequence (P49327 whole entry, the tested form may be a part): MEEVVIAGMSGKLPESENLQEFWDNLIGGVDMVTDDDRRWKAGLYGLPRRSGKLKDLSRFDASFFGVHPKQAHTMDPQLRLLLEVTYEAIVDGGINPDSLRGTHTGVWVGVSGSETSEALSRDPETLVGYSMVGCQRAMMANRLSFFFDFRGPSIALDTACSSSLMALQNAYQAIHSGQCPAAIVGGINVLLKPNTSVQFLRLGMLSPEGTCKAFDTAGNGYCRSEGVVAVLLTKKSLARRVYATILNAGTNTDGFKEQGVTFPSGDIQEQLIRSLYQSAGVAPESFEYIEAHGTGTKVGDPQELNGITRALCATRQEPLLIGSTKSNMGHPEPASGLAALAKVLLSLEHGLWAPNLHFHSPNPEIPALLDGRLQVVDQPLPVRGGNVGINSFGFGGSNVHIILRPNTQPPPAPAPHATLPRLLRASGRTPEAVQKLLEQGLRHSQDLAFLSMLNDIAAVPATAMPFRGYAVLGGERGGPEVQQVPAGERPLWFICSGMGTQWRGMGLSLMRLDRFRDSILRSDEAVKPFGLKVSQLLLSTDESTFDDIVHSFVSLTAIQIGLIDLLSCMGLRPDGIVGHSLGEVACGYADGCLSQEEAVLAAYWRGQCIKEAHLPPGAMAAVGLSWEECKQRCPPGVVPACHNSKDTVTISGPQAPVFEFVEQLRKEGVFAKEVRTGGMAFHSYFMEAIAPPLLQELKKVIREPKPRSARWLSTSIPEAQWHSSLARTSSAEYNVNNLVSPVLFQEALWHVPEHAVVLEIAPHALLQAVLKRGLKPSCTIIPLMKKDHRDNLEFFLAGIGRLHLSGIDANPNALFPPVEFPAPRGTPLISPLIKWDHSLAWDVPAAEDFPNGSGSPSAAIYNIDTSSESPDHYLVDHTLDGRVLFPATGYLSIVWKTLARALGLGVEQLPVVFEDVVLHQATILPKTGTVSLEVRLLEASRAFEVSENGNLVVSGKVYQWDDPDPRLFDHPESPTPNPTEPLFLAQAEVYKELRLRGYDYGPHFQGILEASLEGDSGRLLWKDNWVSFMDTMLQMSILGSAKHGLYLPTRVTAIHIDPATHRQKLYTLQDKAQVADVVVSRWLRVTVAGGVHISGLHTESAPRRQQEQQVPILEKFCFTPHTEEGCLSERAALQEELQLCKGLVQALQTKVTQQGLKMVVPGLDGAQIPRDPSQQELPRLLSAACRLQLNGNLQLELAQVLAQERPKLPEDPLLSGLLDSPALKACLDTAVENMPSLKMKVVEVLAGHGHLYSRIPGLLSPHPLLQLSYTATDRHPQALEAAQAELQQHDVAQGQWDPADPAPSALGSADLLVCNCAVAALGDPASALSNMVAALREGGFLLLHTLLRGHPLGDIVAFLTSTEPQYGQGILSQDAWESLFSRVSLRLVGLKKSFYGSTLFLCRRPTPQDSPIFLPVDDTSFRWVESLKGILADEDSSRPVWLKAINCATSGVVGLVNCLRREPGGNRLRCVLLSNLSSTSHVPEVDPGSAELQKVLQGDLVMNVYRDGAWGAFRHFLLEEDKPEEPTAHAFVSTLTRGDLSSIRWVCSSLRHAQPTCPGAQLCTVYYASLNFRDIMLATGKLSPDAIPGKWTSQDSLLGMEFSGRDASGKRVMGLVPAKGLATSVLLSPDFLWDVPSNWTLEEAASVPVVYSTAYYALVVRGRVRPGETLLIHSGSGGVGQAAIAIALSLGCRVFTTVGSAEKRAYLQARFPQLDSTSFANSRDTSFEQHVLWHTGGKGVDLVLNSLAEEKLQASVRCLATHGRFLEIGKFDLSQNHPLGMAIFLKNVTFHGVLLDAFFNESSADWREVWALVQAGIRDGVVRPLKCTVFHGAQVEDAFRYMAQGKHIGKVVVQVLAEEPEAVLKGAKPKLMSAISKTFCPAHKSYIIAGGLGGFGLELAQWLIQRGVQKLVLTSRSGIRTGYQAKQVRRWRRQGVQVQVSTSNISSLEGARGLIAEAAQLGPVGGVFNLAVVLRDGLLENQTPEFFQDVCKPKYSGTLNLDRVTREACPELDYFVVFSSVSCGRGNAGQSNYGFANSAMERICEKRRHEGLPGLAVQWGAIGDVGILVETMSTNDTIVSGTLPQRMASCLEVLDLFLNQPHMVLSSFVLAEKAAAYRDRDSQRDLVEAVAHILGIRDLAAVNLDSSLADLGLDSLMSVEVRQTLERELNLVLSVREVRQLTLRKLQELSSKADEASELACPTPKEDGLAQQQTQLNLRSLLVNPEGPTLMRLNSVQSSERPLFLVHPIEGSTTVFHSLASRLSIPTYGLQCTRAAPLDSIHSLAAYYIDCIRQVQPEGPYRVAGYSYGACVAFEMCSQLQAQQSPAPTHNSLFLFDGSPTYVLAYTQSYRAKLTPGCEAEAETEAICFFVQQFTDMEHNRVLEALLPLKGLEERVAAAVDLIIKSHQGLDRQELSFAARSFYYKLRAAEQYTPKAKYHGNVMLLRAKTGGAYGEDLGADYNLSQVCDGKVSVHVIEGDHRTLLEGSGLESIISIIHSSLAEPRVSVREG
- protocolText: FAS thioesterase domain inhibitors, dose response, biochemical, kinetic fluorescence intensity (AID 624326);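 further: rate of fluorescence rise from hydrolysis of a fluorogenic O-methyl fluorescein ester substrate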
- Format: functional
Calls of active or inactive are those of the source.
measuredQuantity: IC50

INSERT INTO assay_data (molecule, measuredquantity, testresult) VALUES
  ('O=C(COC(=O)c1cc([N+](=O)[O-])ccc1NCc1ccccc1)NC1CCCCC1', 'IC50', '1.64 µM (active)'),
  ('COc1cc([N+](=O)[O-])cc(/C=N/NC(=O)c2cc(C)nc3ccccc23)c1O', 'IC50', '11.7 µM (active)'),
  ('CCCOc1ccc(NC(=O)CC2C(=O)N(C)C(=S)N2Cc2cccs2)cc1 (centres undefined)', 'IC50', '7.42 µM (active)'),
  ('O=C(NCCc1ccccc1)C(c1cccs1)N(C(=O)CCl)c1ccc(Cl)cc1 (centres undefined)', 'IC50', '10.3 µM (active)'),
  ('Cc1cc(S(=O)(=O)ON2C(=O)c3ccccc3C2=O)ccc1F', 'IC50', '2.07 µM (active)'),
  ('Cc1nnc(Sc2cc(NCCO)c([N+](=O)[O-])c3nonc23)s1', 'IC50', '5.35 µM (active)'),
  ('COCCOc1ccc(C(F)(F)F)cc1NC(=O)COC(=O)c1cc([N+](=O)[O-])ccc1N1CCOCC1', 'IC50', '6.42 µM (active)'),
  ('CN(C)CCCNC(=O)C[C@H]1C[C@H](C(=O)N2CCOCC2)[C@@]2(CCC3CCCC3)c3[nH]c4cc(-c5ccco5)ccc4c3CCN2C1=O', 'IC50', '5.89 µM (active)'),
  ('CC(=O)NNc1nc(-c2ccccc2)cs1', 'IC50', '18.2 µM (active)');

---

- assayTarget: DNA dC->dU-editing enzyme APOBEC-3G (Homo sapiens, UniProt Q9HC16)
- Sequence (Q9HC16 whole entry): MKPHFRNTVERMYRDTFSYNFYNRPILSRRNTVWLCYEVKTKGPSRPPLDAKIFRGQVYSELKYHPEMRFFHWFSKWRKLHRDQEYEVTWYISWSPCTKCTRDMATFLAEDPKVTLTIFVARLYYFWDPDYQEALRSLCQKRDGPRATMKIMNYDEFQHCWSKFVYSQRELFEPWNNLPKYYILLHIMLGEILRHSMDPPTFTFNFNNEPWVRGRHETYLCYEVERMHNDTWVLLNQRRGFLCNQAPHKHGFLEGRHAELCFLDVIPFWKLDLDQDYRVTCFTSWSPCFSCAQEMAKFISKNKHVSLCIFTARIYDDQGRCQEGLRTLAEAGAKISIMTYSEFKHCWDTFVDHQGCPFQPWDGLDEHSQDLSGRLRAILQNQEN
- protocolText: Dose Response confirmation of small molecule APOBEC3G DNA Deaminase Inhibitors via a fluorescence-based single-stranded DNA deaminase assay. [Related pubchem assays (depositor defined):AID493012, AID493028]
- Type: functional
The source made the active and inactive calls.
measuredQuantity: IC50

INSERT INTO results (compound, assaytarget, measuredquantity, testresult) VALUES
  ('O=C(NC1=NC(=O)C(F)(C(F)(F)F)S1)NC1CCCCC1 (centres undefined)', 'DNA dC->dU-editing enzyme APOBEC-3G (Homo sapiens, UniProt Q9HC16)', 'IC50', '32.7 µM (active)'),
  ('CCOC(=O)c1sc(N)c(C(=O)Nc2ccccc2OC)c1C', 'DNA dC->dU-editing enzyme APOBEC-3G (Homo sapiens, UniProt Q9HC16)', 'IC50', '68.9 µM (active)'),
  ('COc1ccc(NC(=O)CN2C(=O)/C(=C3\SC(=S)N(CCC(=O)O)C3=O)c3ccccc32)cc1', 'DNA dC->dU-editing enzyme APOBEC-3G (Homo sapiens, UniProt Q9HC16)', 'IC50', '40.9 µM (active)'),
  ('CCn1c(S)nnc1-c1ccc([N+](=O)[O-])cc1', 'DNA dC->dU-editing enzyme APOBEC-3G (Homo sapiens, UniProt Q9HC16)', 'IC50', '9.77 µM (active)');
